assay remarks: qHTS drug screen for cell cycle checkpoint inhibitors in PARPi-resistant BRCA-mutant ovarian cancer cell lines. (AID 1963452)
settings: PEO1/OlaR viability, CellTiter-Glo luminescence, 96 h; measured here: PEO1 parental Z-AUC; stronger effect = lower value
I'd be grateful if you could share measured Z-AUC for these entries.
Numbers only.

For orientation, consider the following solved cases.
chemical structure	Z-AUC
C=CC(=O)Nc1cc(Nc2nccc(-c3cn(C)c4ccccc34)n2)c(OC)cc1N(C)CCN(C)C	-0.39
CCc1c(C(=O)NNC(=O)[C@@H](O)c2cc(F)cc(F)c2)ccc(O)c1C	0.688
Cn1cc(-c2cnc3ccc4ccc(CS(=O)(=O)NCc5ccccn5)cc4c(=O)c3c2)cn1	-0.542
Cn1c(NC[C@@H](N)Cc2ccccc2)nc(-c2ccncc2)c(-c2ccc3ccccc3c2)c1=O	0.768

Q: # Z-AUC lookup, item "Cc1[nH]c(/C=C2\C(=O)Nc3ccc(F)cc32)c(C)c1C(=O)NC[C@H](O)CN1CCOCC1"
Ans: 0.846

----------
target or test system: Cytochrome P450 2C9 (Homo sapiens) (UniProt P11712)
Sequence (P11712 whole entry, looked up): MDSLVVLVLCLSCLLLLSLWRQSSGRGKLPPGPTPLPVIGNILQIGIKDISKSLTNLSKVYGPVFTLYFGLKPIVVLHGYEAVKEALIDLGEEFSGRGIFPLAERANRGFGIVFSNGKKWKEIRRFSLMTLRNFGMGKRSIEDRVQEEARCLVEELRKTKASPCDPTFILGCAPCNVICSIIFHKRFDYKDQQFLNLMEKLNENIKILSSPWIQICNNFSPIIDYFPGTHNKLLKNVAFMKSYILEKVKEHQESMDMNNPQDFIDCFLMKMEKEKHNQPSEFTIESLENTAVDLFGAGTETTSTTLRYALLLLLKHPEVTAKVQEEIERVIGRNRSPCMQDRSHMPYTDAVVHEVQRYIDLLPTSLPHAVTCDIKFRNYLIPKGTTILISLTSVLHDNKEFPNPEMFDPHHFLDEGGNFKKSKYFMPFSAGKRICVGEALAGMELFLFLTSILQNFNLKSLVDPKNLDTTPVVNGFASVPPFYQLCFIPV
assay remarks: Cytochrome P450 family 2 subfamily C member 9 (CYP2C9) small molecule antagonists: luciferase biochemical (cell-free) qHTS assay (AID 1645842); also: nearly all actives have a fitted effect of over 55% in size
settings: P450-Glo CYP2C9 enzyme assay, luciferin luminescence; series mostly up to 57.4 µM
Results filed as inconclusive are left out. Calls of active or inactive are those of the source. The call rests on the fitted dose curve; in most records, active means well fitted inhibition curve with a large enough effect in the repeat runs; inconclusive means weak or mixed curves; inactive means no such curve, though single readings can be large or run the other way.
Thanks in advance; please answer with one of these: y = active, n = inactive

The examples below pair each entry with its known result.
chemical structure	discrete label
COc1cccc(CNC(=O)Nc2nc(-c3ccncc3)cs2)c1	y
COc1ccc(C(=O)N(CCC(C)C)Cc2nc(C)c(C)n2Cc2ccccc2C)c(OC)c1	y
Cc1[nH]c(/C=C2\C(=O)Nc3ccccc32)c(C)c1CCC(=O)O	n
CCOC(=O)c1cnn(-c2ccc(NC(=O)C(Cl)=C(Cl)Cl)cc2)c1C(F)(F)F	y

Q: Give the logged outcome of this assay for the following compound: "Cc1ccc(C(=O)N2CCN(c3ccc([N+](=O)[O-])cc3)CC2)cc1Cl"
Ans: y

----------
assay remarks: NS1 protein of Zika virus - qHTS assay to identify small molecule inhibitors in human HEK 293 cells (AID 1347053);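 also: plate controls were infected untreated cells for no effect and uninfected cells for full effect; nearly all actives have a fitted effect of over 55% in size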
settings: HEK293 ZIKV MR766 infection, NS1 TR-FRET, 24 h; series mostly up to 46.1 µM
Results filed as inconclusive are left out. Calls of active or inactive are those of the source. Calls come from the whole dose curve; as a rule, active = well fitted inhibition curve with a large enough effect; inconclusive = small, poorly fitted or top-dose-only effect; inactive = no such curve, though single readings can be large or run the other way.
readout kind: outcome

For orientation, consider the following solved cases.
chemical structure	outcome
C[C@H](Cc1ccccc1)Nc1ncnc2c1ncn2[C@@H]1O[C@H](CO)[C@@H](O)[C@H]1O	inactive
CCc1ccc(/C=C2/SC(=S)NC2=O)cc1	inactive
N.N.O=C(O)C1(C(=O)O)CCC1.[Pt+2]	inactive
N#C/C(=C\c1ccc(O)c(O)c1)C(=O)Nc1ccccc1	inactive
CCN(CC)c1ccc(C(=C2C=CC(=[N+](CC)CC)C=C2)c2cc(S(=O)(=O)O)ccc2S(=O)(=O)[O-])cc1	inactive

Lab note: each compound below needs its outcome filled in.
1. CS(=O)(=O)c1ccc(-c2cn3ccccc3n2)cc1
2. Cc1cccc(/C=C/c2ccccc2)n1

Ans:
inactive
inactive

----------
assay remarks: Redox Reaction Profiling qHTS: Assay Interference Panel against the NCATS CANVASS Library (AID 1347401);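 also: 100% = activation by 2 µM chloranil control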
settings: resazurin-DTT redox cycling, fluorescence, 15 min; series mostly up to 57.1 µM
Records with an inconclusive call do not appear. Active and inactive are the calls of the source. The call rests on the fitted dose curve; in most records, active means well fitted activation curve with a large enough effect; inconclusive means small, poorly fitted or top-dose-only effect; inactive means no such curve, though single readings can be large or run the other way.
Thanks in advance; please answer with one of these: active, inactive

Q: Give the logged outcome of this assay for the following compound: COc1ccc([C@@H]2c3cc(OC)c(OC)cc3C(=O)C(C)C2C)cc1OC (stereo not given in full)
Ans: inactive

The measured values listed here are drawn from PubChem BioAssay (NCATS).
